Data provenance is patent US20240383908A1.

Target: SHP2 protein (Homo sapiens, UniProt Q06124)
Sequence (Q06124 1-593): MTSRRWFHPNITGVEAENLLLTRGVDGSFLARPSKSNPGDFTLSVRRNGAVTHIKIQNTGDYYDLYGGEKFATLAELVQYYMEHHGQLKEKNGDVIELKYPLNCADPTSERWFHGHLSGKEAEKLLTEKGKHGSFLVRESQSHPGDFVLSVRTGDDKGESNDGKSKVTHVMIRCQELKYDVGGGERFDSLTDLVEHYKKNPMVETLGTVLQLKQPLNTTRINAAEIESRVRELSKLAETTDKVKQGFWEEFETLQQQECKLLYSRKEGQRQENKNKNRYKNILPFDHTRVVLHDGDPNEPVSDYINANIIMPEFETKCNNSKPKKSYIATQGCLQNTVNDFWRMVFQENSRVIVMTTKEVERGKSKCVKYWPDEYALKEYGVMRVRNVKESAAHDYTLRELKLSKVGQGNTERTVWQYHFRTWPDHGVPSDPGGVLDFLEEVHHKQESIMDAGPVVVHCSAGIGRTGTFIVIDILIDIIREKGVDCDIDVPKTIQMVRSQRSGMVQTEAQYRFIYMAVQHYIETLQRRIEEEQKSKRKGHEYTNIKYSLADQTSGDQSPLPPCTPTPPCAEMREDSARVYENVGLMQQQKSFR
Assay: Degradation activity on SHP2 protein in MV-411 cells (Western blot, DC50)
Assay type: cell-based
Parameters: endogenous in cells
Settings: MV411 cells, 24 hours, read-out: Degradation activity for differenct cell lines MV411 (DC50)
Description: […] (3) After 24 hours of cultivation, the cells were lysed using RIPA cell lysate, and the proteins were extracted. The protein concentration was measured using a BCA assay kit. […] (6) The images were analyzed with Image J grayscale, and the degradation ratio of protein bands in the test group was calculated, based on the negative control group (DMSO) (100%). […]
// reported DC50 per item

{"Compound": "CC1(N)CCN(c2cnc(Sc3cccc(NC(=O)CCN4CCN(Cc5ccc(COc6cccc7c6CN(C6CCC(=O)NC6=O)C7=O)cc5)CC4)c3)cn2)CC1 (stereo not drawn) [Compound 84]", "DC50": "> 1000 nM"}
{"Compound": "CC1(N)CCN(c2cnc(Sc3cccc(NC(=O)CCCCCC=C4CC5(CCN(c6ccc(C(=O)NCc7ccc8c(c7)CN(C7CCC(=O)NC7=O)C8=O)nn6)CC5)C4)c3)cn2)CC1 (stereo not drawn) [Compound 209]", "DC50": "< 100 nM"}
{"Compound": "NC1(CO)CCN(c2cnc(Sc3cccc(NC(=O)CCCCCCN4CC5(CCN(c6ccc(C(=O)NCc7ccc8c(c7)CN(C7CCC(=O)NC7=O)C8=O)nn6)C5)C4)c3)cn2)C1 (stereo not drawn) [Compound 198]", "DC50": "> 1000 nM"}

---

We begin with a simple list: items and their reported DC50.
Molecular target: SHP2 protein (Homo sapiens, UniProt Q06124)
Sequence (Q06124 1-593): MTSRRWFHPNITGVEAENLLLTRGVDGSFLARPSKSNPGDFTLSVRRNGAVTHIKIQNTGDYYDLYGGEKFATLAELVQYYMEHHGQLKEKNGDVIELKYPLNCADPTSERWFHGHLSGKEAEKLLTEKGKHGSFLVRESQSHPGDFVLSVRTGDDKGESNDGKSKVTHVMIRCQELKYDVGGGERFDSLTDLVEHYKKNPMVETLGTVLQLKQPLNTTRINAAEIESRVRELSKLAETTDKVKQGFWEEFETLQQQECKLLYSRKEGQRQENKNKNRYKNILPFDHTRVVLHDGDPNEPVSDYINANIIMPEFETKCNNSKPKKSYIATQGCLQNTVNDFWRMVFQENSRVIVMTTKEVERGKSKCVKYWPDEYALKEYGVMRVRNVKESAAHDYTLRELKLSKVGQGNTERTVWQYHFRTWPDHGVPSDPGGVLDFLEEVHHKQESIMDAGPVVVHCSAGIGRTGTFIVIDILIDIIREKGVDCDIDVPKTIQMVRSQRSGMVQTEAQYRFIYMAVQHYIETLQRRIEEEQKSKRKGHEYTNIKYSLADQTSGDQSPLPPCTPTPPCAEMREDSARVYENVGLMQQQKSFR
Assay: Degradation activity on SHP2 protein in MV-411 cells (Western blot, DC50)
Assay type: cell-based
Design: endogenous in cells
Details: MV411 cells, 24 hours, read-out: Degradation activity for differenct cell lines MV411 (DC50)
Experimental Endpoint: DC50

{"Molecule": "CC1(N)CCN(c2cnc(Sc3cccc(NC(=O)CCCCN4CC5(CCN(c6ncc(C(=O)NCc7ccc8c(c7)CN(C7CCC(=O)NC7=O)C8=O)cn6)C5)C4)c3)cn2)CC1 (stereo not drawn) [Compound 89]", "Experimental Endpoint": "DC50", "Result": "< 100 nM"}
{"Molecule": "CC1(N)CCN(c2cnc(Sc3cccc(NC(=O)CCCCCCC(=O)N4CC5(CN(C(=O)/C=C/C(=O)NCc6ccc7c(c6)CN(C6CCC(=O)NC6=O)C7=O)C5)C4)c3)cn2)CC1 (stereo not drawn) [Compound 125]", "Experimental Endpoint": "DC50", "Result": "> 1000 nM"}
{"Molecule": "Cc1ncsc1-c1ccc([C@H](C)NC(=O)[C@@H]2C[C@@H](O)CN2C(=O)[C@@H](NC(=O)CCCCCCCCN2CCN(C(=O)CCC(=O)Nc3cccc(Sc4ncc(N5CCC(C)(N)CC5)nc4N)c3Cl)CC2)C(C)(C)C)cc1 [Compound 999]", "Experimental Endpoint": "DC50", "Result": "< 100 nM"}
{"Molecule": "CC1(N)CCN(c2cnc(Sc3cccc(NC(=O)CCCCCCCCN4CCN(c5ccc(C(=O)NCc6ccc7c(c6)CN(C6CCC(=O)NC6=O)C7=O)nn5)CC4)c3)cn2)CC1 (stereo not drawn) [Compound 63]", "Experimental Endpoint": "DC50", "Result": "< 100 nM"}
{"Molecule": "CC1(N)CCN(c2cnc(Sc3cccc(NC(=O)/C=C/C(=O)N4CCN(CCCCCCCCC(=O)NCc5ccc6c(c5)CN(C5CCC(=O)NC5=O)C6=O)CC4)c3)cn2)CC1 (stereo not drawn) [Compound 55]", "Experimental Endpoint": "DC50", "Result": "< 100 nM"}
{"Molecule": "NC1(CO)CCN(c2cnc(Sc3cccc(NC(=O)CCCCCCCNc4ccc(-c5ccc(C(=O)NCc6ccc7c(c6)C(=O)N(C6CCC(=O)NC6=O)C7)nn5)cc4)c3)cn2)CC1 (stereo not drawn) [Compound 201]", "Experimental Endpoint": "DC50", "Result": "100 to 1000 nM"}
